Biological target: T1, 4H3165-AA
T1 chain: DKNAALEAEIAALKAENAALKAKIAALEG
Experiment: two-hybrid library CCmax;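 also: natural log of median RNA to DNA barcode read ratio; higher means stronger binding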
Conditions: mean of both orientations
measured.parameter: interaction score
// return a plain number; no unit text

Known interaction score results, listed for orientation:
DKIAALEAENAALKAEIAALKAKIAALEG [4H2253-AA]    -1.44
DKIAALEAENAALKAKIAALEAEIAALKG [4H2274-AA]    -1.19

[ask] Any idea what interaction score was measured for DENAALKAEIAALKAENAALKAEIAALKG [4H1626-AA] ?
[reply] -0.447

[ask] Try this binder too: DKIAALKAKNAALKAEIAALEAEIAALEG [4H3009-AA]
[reply] -1.43

[ask] Now try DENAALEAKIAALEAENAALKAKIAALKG [4H1310-AA] .
[reply] 0.0119

[ask] Note, next up: DKIAALKAKNAALKAEIAALEAKNAALKG [4H3016-AA]
[reply] -1.17

[ask] Next: DKIAALEAKNAALEAKIAALKAEIAALEG [4H2473-AA]
[reply] -1.43

[ask] And the next one, DENAALKAKIAALKAEIAALEAKNAALKG [4H1864-AA] ?
[reply] -1.47
